IC50 values by entry
Molecular target: recombinant human baculovirus-expressed GST-tagged FASN (Homo sapiens, UniProt P49327)
Construct: GST
Sequence (P49327 whole entry): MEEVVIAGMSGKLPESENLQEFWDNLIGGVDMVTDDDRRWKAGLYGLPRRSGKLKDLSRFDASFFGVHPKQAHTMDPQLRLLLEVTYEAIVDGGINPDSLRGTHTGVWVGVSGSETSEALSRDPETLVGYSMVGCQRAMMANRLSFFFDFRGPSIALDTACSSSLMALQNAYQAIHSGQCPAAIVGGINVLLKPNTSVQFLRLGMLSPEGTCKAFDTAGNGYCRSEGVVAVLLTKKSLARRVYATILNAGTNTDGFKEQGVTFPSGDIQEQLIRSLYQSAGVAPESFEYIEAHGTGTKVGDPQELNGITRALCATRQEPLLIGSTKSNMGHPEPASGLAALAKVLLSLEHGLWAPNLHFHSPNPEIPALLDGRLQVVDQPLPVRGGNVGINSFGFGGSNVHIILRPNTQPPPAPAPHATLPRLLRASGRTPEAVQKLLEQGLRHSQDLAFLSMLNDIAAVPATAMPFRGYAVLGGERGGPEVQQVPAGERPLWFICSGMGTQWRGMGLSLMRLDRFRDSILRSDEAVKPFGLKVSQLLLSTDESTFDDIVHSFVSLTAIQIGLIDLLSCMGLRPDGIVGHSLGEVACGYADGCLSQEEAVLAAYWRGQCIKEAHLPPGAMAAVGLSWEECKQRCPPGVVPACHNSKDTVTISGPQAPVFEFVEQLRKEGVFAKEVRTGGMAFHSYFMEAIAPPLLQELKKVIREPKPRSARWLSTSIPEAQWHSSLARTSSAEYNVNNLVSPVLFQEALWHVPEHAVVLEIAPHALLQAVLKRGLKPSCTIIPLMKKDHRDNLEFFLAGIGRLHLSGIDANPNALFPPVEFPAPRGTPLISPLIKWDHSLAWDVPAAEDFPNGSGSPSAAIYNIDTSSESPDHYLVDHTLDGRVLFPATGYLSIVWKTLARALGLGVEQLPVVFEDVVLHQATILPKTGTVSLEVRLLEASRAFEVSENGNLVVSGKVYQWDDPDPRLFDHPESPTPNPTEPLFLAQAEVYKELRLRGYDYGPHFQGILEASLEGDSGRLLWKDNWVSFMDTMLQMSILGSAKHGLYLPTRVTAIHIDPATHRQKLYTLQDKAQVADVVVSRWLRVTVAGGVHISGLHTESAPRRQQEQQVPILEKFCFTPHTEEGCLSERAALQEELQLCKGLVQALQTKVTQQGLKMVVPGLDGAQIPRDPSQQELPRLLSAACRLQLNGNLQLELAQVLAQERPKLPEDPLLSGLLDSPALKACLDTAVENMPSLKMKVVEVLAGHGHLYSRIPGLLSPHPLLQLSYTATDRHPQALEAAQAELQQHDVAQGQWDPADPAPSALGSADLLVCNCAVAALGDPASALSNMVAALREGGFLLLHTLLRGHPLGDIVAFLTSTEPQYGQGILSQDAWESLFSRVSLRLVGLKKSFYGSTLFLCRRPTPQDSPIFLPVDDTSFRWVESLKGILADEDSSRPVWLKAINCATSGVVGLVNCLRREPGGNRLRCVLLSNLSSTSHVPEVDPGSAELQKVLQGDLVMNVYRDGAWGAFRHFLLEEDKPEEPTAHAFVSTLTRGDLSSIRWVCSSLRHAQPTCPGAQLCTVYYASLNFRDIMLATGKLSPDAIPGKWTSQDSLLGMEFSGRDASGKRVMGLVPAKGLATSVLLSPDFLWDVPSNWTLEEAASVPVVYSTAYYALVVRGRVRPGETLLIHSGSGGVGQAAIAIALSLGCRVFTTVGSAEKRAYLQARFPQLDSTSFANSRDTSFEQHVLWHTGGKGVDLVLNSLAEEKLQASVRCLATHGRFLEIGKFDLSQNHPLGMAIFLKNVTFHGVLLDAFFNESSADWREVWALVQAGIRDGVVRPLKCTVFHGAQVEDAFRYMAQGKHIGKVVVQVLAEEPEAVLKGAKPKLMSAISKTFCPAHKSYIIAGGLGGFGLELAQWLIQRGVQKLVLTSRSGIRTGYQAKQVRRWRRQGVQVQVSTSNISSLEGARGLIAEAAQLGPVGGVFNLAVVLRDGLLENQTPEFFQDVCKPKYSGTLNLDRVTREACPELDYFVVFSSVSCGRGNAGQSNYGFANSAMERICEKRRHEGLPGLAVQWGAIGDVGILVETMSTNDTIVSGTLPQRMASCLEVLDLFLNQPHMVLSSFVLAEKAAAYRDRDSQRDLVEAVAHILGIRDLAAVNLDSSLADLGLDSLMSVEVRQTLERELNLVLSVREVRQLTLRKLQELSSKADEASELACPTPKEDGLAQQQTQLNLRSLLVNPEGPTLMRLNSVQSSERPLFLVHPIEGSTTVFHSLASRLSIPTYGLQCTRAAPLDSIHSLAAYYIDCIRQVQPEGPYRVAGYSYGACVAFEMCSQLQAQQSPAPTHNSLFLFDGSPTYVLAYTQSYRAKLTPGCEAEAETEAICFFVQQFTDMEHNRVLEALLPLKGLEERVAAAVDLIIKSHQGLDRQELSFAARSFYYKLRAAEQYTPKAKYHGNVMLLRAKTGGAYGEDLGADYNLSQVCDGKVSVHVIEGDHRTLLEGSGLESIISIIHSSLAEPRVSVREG
Assay: FASN enzyme activity assay, fluorescence-based detection of CoA with CPM
Format: biochemical
Conditions: 5 nM FASN, 150 μM NADPH, 10 μM acetyl-CoA, 25 μM malonyl-CoA, 90 minutes incubation; read-out: IC50 data for Compounds of Formulae I-V/V(a): Activity
Where a name gives a salt, the structure may show the parent alone.

CCC(=O)N1CCC(Oc2ccc(-c3cnc(OC)c(OC)c3)cc2)CC1
1000 to 10000 nM

Record CCC(=O)N1CCC(Oc2ccc(-c3cnc4c(C)cccc4c3)cc2)CC1 [Example 486, HCl] ; system recombinant human baculovirus-expressed GST-tagged FASN (Homo sapiens, UniProt P49327); IC50 = 1 to 99 nM

Here CCC(=O)N1CCC(Oc2ccc(-c3ccc4cccnc4c3)cc2)C1 (stereo in doubt) [Example 342, HCl] was tested on recombinant human baculovirus-expressed GST-tagged FASN (Homo sapiens, UniProt P49327), and its IC50 came to 1000 to 10000 nM

Reported recombinant human baculovirus-expressed GST-tagged FASN (Homo sapiens, UniProt P49327) IC50 for item "Cc1c(-c2ccc(OC3CCN(C(=O)C4(O)CC4)CC3)cc2)ccc2ncnn12" was 100 to 999 nM

---

Biological target: recombinant human baculovirus-expressed GST-tagged FASN (Homo sapiens)
Construct: GST
Assay: FASN enzyme activity assay, fluorescence-based detection of CoA with CPM
Assay type: biochemical
Conditions: 5 nM FASN, 150 μM NADPH, 10 μM acetyl-CoA, 25 μM malonyl-CoA, 90 minutes incubation; read-out: IC50 data for Compounds of Formulae I-V/V(a): Activity
Counter-ions that a name gives are not always drawn.
reported_endpoint: IC50

Some solved cases for reference:
CC(C)C(=O)N1CCC(Oc2ccc(-c3cnc4ccccc4c3)cc2Cl)CC1
1000 to 10000 nM
Cc1cc(-c2ccc(OC3CCN(C(=O)C4CC4)CC3)cc2)c2cccnc2c1 [Example 349, HCl]
1 to 99 nM
CNc1nccc2cc(-c3ccc(OC4CCN(C(=O)[C@H]5CCCO5)CC4)cc3)ccc12
1 to 99 nM

Short answer for "O=C(C1CC1)N1CCC(Oc2ccc(-c3ccc4cncn4c3)cc2)CC1" : IC50 was 1000 to 10000 nM

---

Molecular target: recombinant human baculovirus-expressed GST-tagged FASN (Homo sapiens, UniProt P49327)
Construct: GST
Test: FASN enzyme activity assay, fluorescence-based detection of CoA with CPM
Format: biochemical
Conditions: 5 nM FASN, 150 μM NADPH, 10 μM acetyl-CoA, 25 μM malonyl-CoA, 90 minutes incubation; read-out: IC50 data for Compounds of Formulae I-V/V(a): Activity
Counter-ions that a name gives are not always drawn.
reported_endpoint: IC50

Below are worked cases with known answers.
Cc1ccc(C)c(C(=O)N2CCC(Oc3ccc(-c4cnc5ccccc5c4)cc3)CC2)c1 [Example 128, HCl]
1000 to 10000 nM
Cc1ccc2cc(-c3ccc(OC4CCN(C(=O)C5CC5)CC4)cc3)cnc2c1 [Example 64]
100 to 999 nM
CC(C)C(=O)N1CCC(Oc2ccc(-c3ccc4cnccc4c3)nc2)CC1 [Example 148]
1000 to 10000 nM

Kindly review the next compound as well.
GET /value?item= O=C(C1CC1)N1CCC(Oc2ccc(-c3cnc4ccccc4c3)cn2)CC1 [Example 134, HCl] &field=IC50 returns 1000 to 10000 nM

---

Where a name gives a salt, the structure may show the parent alone.
reported_endpoint: melting point (°C)

(a) CC(C)C(=O)N1CCC(Sc2ccc(-c3cnc4ccccc4c3)cc2)CC1 (as salt: HCl) [Example 522]
(b) CCC(=O)N1CCC(Sc2ccc(-c3ccc4cccnc4c3)cc2)CC1 (as salt: HCl) [Example 516]
Query: Which entry has a larger number for melting point, a or b ? Which one? Tell me its label.
Reply: b
(b: 188 °C, a: 130 °C)

---

pIC50 reference
Molecular target: recombinant human baculovirus-expressed GST-tagged FASN (Homo sapiens)
Construct: GST
Assay: FASN enzyme activity assay, fluorescence-based detection of CoA with CPM
Format: biochemical
Details: 5 nM FASN, 150 μM NADPH, 10 μM acetyl-CoA, 25 μM malonyl-CoA, 90 minutes incubation; read-out: IC50 data for Additional Compounds of Formulae I-V(a): Activity
pIC50: −log10 of the molar value. Structures can show the parent of a compound that is named as a salt.

Cc1c(-c2ccc(OC3CCN(C(=O)N4CCN(C)CC4)CC3)cc2)ccc2nccn12
6.00 to 7.00
Cc1c(-c2ccc(OC3CCN(C(=O)OCCN4CCOCC4)CC3)cc2)ccc2cccnc12
5.00 to 6.00
CCCONC(=O)N1CCC(Oc2ccc(-c3cnc4ccccc4c3C)cc2)CC1
7.00 to 9.00
CCNC(=O)N1CCC(Oc2ccc(-c3ccc4ccnn4c3C)cc2)CC1
5.00 to 6.00
CCCNC(=O)N1CCC(Oc2ccc(-c3ccn4ccnc4c3C)cc2)CC1 [Example 631, HCl]
7.00 to 9.00
Cc1c(-c2ccc(OC3CCN(C(=O)[C@H]4CCCN4)CC3)cc2)ccc2cccnc12
5.00 to 6.00
CCNC(=O)N1CCC(Oc2ccc(-c3ccn4ccnc4c3)cc2)CC1 [Example 628, HCl]
7.00 to 9.00

Record "Cc1nccc2cc(-c3ccc(OC4CCN(C(=O)NO)CC4)cc3)ccc12" . Reported pIC50: 6.00 to 7.00

---

Biological target: recombinant human baculovirus-expressed GST-tagged FASN (Homo sapiens, UniProt P49327)
Construct: GST
Test: FASN enzyme activity assay, fluorescence-based detection of CoA with CPM
Format: biochemical
Settings: 5 nM FASN, 150 μM NADPH, 10 μM acetyl-CoA, 25 μM malonyl-CoA, 90 minutes incubation; read-out: IC50 data for Compounds of Formulae I-V/V(a): Activity
pIC50: −log10 of the molar value. Structures can show the parent of a compound that is named as a salt.
As shown below, each of these compounds has a reported pIC50 value.

CCC(=O)N1CCC(Oc2ccc(-c3cncc(Nc4ccccc4)c3)cc2)CC1 [Example 401, TFA salt]
5.00 to 6.00

// pIC50 value for "Cc1c(-c2ccc(OC3CCN(C(=O)C(F)(F)F)CC3)cc2)ccc2cccnc12" : 5.00 to 6.00

Lab book: pIC50 of O=C([C@H]1CCCO1)N1CCC(Oc2ccc(-c3ccc4cc(Cl)cnc4c3)cc2)CC1 [Example 265, TFA salt] noted as 7.00 to 9.00

Lab note: "COC(=O)N1CCC(Oc2ccc(-c3cnc4ccccc4c3)c(C)c2)CC1" gave pIC50 of 5.00 to 6.00

---

Target: recombinant human baculovirus-expressed GST-tagged FASN (Homo sapiens)
Construct: GST
Assay: FASN enzyme activity assay, fluorescence-based detection of CoA with CPM
Format: biochemical
Conditions: 5 nM FASN, 150 μM NADPH, 10 μM acetyl-CoA, 25 μM malonyl-CoA, 90 minutes incubation; read-out: IC50 data for Compounds of Formulae I-V/V(a): Activity
From the text: FASN Enzyme activity may be determined by detecting coenzyme A (CoA), a product of FASN-catalyzed synthesis of palmitate from acetyl-CoA and malonyl-CoA with NADPH as a cofactor. The assay is fluorescence-based and measures the interaction of free CoA with 7-diethylamino-3-(4′-malemimidylphenyl)-4-methylcoumarin (CPM; Life Technologies, CA) as described in Chung et al (2008). […]
Where a name gives a salt, the structure may show the parent alone.
As shown below, each of these compounds has a reported IC50 value.

O=C1CCCN1C(=O)N1CCC(Oc2ccc(-c3cnc4ccccc4c3)cc2)CC1 [Example 243]
1 to 10 µM
COc1cc2cc(-c3ccc(OC4CCN(C(=O)C5CC5)CC4)cc3)cnc2cc1OC [Example 56]
1 to 10 µM
CCC(=O)N1CCC(Oc2ccc(-c3cnc4ccc(OC)cc4c3)cc2)CC1 [Example 53]
1 to 10 µM

Form: item COc1ccc(-c2ccc(OC3CCN(C(=O)OC(C)(C)C)CC3)cc2)cc1OC [Example 489] ; test system recombinant human baculovirus-expressed GST-tagged FASN (Homo sapiens); IC50: 1 to 10 µM

Lab note: compound CCC(=O)N1CCC(Oc2ccc(-c3c(C)ccc4ncccc34)cc2)CC1 [Example 350, HCl] tested on recombinant human baculovirus-expressed GST-tagged FASN (Homo sapiens); recorded IC50 was 0.1 to 0.999 µM

// compound O=C([C@H]1CCCO1)N1CCC(Oc2ccc(-c3ccc4c(Cl)nccc4c3)cc2)CC1 [Example 429] , assay recombinant human baculovirus-expressed GST-tagged FASN (Homo sapiens), IC50 value: 0.001 to 0.099 µM

Record for CCC(=O)N1CCC(Oc2ccc(-c3ccc(Cl)c(Cl)c3)cc2)CC1 [Example 500] under target or system recombinant human baculovirus-expressed GST-tagged FASN (Homo sapiens): IC50 reported as 1 to 10 µM

Item O=C(C1CCC1)N1CCC(Oc2ccc(-c3cc4ccccc4cn3)cc2)CC1 [Example 45] ; assay system recombinant human baculovirus-expressed GST-tagged FASN (Homo sapiens); IC50 reported as 0.001 to 0.099 µM
